Origin of measurements: paper PMC5278949

Target: UniProtKB P41145
Assay: GTPγS assay, antagonism of U69, […], concentration-response
Format: biochemical
Below: a set of entries, each annotated with reported pIC50.
Please keep in mind that pIC50 is minus log10 of the molar concentration; only the number is needed.

What the record says about COc1ccc(N2CCN(CCCNC(=O)CN3C(=O)C4CCCCN4c4cc(C)cnc43)CC2)cc1 (racemic) [compound 28] : pIC50 is 6.04

* * *

Below: a set of entries, each annotated with reported IC50.
Target: kappa opioid receptor (KOR) (Homo sapiens)
Sequence (P41145 whole entry): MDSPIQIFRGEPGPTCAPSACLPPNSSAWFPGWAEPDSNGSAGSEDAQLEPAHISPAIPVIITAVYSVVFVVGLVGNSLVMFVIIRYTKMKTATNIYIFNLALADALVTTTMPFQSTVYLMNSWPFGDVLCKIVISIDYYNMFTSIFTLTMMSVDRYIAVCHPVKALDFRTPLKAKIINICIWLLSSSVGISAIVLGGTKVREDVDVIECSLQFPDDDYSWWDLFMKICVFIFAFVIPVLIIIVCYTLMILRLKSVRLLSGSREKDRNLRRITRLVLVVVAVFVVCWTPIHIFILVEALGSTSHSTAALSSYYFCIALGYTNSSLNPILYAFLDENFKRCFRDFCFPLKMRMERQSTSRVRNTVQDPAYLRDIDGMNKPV
Respond numerically; units are nM and should not be typed.

Would you please look over these solved cases?
>>> experimental_result("COc1ccc(N2CCN(CCCNC(=O)CN3C(=O)[C@@H]4CCCN4c4cc(C)cnc43)CC2)cc1")
2620
>>> experimental_result("COc1ccc(N2CCN(CCCNC(=O)CN3C(=O)[C@@H]4CCCN4c4c(C)ccnc43)CC2)cc1")
2820

Could you now look at the following compound, please?
Form: item COc1ccc(N2CCN(CCCNC(=O)CN3C(=O)[C@H](CC(C)C)Nc4cc(C)cnc43)CC2)cc1 ; test system kappa opioid receptor (KOR) (Homo sapiens); IC50: 433
